Hey, just so you know, these numbers are from patent US11548880B2.

- Subject of test: Hb (Homo sapiens, UniProt P68871+P69905)
- Construct: from tissue; host or cells: whole blood
- Sequence (P69905 2-142 limits assumed): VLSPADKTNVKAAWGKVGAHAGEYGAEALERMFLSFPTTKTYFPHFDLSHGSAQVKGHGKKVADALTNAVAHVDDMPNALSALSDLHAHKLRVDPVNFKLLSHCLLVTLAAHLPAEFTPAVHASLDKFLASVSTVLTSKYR
- Sequence (P68871 2-147 limits assumed): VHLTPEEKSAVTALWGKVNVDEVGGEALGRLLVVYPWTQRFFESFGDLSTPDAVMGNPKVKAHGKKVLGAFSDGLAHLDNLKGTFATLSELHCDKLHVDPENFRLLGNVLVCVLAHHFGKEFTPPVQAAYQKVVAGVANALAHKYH
- Experimental protocol: Whole blood assay: oxygen equilibrium curves (Hemox Analyzer), change in p50
- Assay type: cell-based
- Experimental context: whole blood incubated 1 h at 37° C., equimolar ratio of hemoglobin to compound
# strict inequality: Delta-p50 (%) < 70% yields 1, everything else yields -1

Look over these answered cases.
In the record for O=Cc1c(O)cccc1OC[C@@H]1CSCCN1C(=O)c1ccccc1C(O)CO (single isomer, unassigned) [35 (Diastereomer 1)] , is Delta-p50 (%) less than 70%?
-1

Now try `N#CCCc1ncccc1C(=O)N1CCCC[C@H]1COc1cccc(O)c1C=O` .
-1

Then what about the compound CC(O)Cc1ncccc1C(=O)N1CCOC[C@H]1COc1cccc(O)c1C=O (single isomer, unassigned) [42 (Diastereomer 1)] ?
-1

// same read-out, input: `N#CCCc1ccccc1C(=O)N1CCOC[C@H]1COc1cccc(O)c1C=O`
-1

Now this one: CC(O)Cc1ncccc1C(=O)N1CCSC[C@H]1COc1cccc(O)c1C=O (single isomer, unassigned) [44 (Diastereomer 2)]
1

Next:
Consider the compound `O=Cc1c(O)cccc1OC[C@@H]1CCCCN1C(=O)c1ccccc1CCO` . Is its Delta-p50 (%) strictly less than 70%?
-1

---

Consider the following molecules and their measured blood plasma ratio readings.
- Experimental protocol: Rat PK, oral gavage
- Type: in vivo, Sprague-Dawley rats
- Experimental context: male, Sprague-Dawley, rat, whole blood and plasma, po, 10 mg/kg, AUClast in blood divided by AUClast in plasma; rats, oral gavage 10 mg/kg
- Method: Rat PK: A group of fasted male Sprague-Dawley rats were dosed via oral gavage at 10 mg/kg with test articles formulated in 0.5% methylcellulose suspension. Blood samples were collected through jugular vein at pre-selected time points. […] Test article concentrations were measured by HPLC-MS-MS. Pharmacokinetic parameters were calculated using non-compartment analysis. […] The T1/2 was calculated via a linear regression of the terminal phase of the blood-time concentration profile.
# print the numeric value only

Fill in the blank: the reported blood plasma ratio of O=Cc1c(O)cccc1OC[C@@H]1COCCN1C(=O)c1ccccc1 [Reference Compound B, reference compound] is ____.
98

Check O=Cc1c(O)cccc1OC[C@@H]1CCCCN1C(=O)c1cccnc1C(O)CO (some centres unmarked) too.
115

---

Below is a list of entries, each paired with its recorded Delta-p50 (%) value.
- Subject of test: Hb (Homo sapiens, UniProt P68871+P69905)
- Construct: from tissue; host or cells: whole blood
- Experimental protocol: Whole blood assay: oxygen equilibrium curves (Hemox Analyzer), change in p50
- Type: cell-based
- Experimental context: whole blood incubated 1 h at 37° C., equimolar ratio of hemoglobin to compound
Numeric answer plus unit only.

Worked cases, Delta-p50 (%) given:
What does the data say about its Delta-p50 (%)? Entry: O=Cc1c(O)cccc1OC[C@@H]1CCCCN1C(=O)c1ccccc1C(O)CO (single isomer, unassigned) [34 (Diastereomer 2)]
81.59%

// next record `N#CCCc1nccnc1C(=O)N1CCOC[C@H]1COc1cccc(O)c1C=O`
60.55%

Lookup `N#CCCc1ncccc1C(=O)N1CCOC[C@H]1COc1cccc(O)c1C=O`
83.35%

How about `COCCc1nccnc1C(=O)N1CCC[C@H]1COc1cccc(O)c1C=O` ?
53.36%

Likewise for CC(O)c1ncccc1C(=O)N1CCSC[C@H]1COc1cccc(O)c1C=O (single isomer, unassigned) [43 (Diastereomer 1)] ?
64.50%

Others:
// query Delta-p50 (%) value for entry O=Cc1c(O)cccc1OCC1CSCCN1C(=O)c1cccnc1CCO (single isomer, unassigned) [10 (Enantiomer 1)]
65.6%

Further, for `O=Cc1c(O)cccc1OC[C@@H]1CCCN1C(=O)c1ccccc1CO` ?
51.72%

And then `O=Cc1c(O)cccc1OC[C@H]1COCCN1C(=O)c1cccnc1CCO` , what is it?
60.58%

---

- Experimental protocol: Rat PK, oral gavage
- Format: in vivo, Sprague-Dawley rats
- Experimental context: male, Sprague-Dawley, rat, whole blood, po, 10 mg/kg, fasted male Sprague-Dawley rats, oral gavage 10 mg/kg, 0.5% methylcellulose suspension, blood
Listing of entries alongside the reported half-life.
Quick reminder: number only, in h, skip the unit.

Example entries and their recorded answers appear below.
Please look up its half-life: O=Cc1c(O)cccc1OC[C@@H]1CSCCN1C(=O)c1ccccc1C(O)CO (single isomer, unassigned) [35 (Diastereomer 1)]
102

Let us now turn to O=Cc1c(O)cccc1OC[C@@H]1CCCCN1C(=O)c1cccnc1CCO [Compound 1]
58

Also O=Cc1c(O)cccc1OC[C@@H]1COCCN1C(=O)c1cccnc1CCO [Compound 8] , if possible.
69

New cases:
Can you look up the measured half-life of CC(C)(O)Cc1ncccc1C(=O)N1CCOC[C@H]1COc1cccc(O)c1C=O [Compound 39] for me?
52

Follow-up item: O=Cc1c(O)cccc1OCC1CSCCN1C(=O)c1ccccc1CO (single isomer, unassigned) [40 (Enantiomer 2)]
117

Okay, and O=Cc1c(O)cccc1OCC1CSCCN1C(=O)c1cccnc1CO (single isomer, unassigned) [Compound 13 (Enantiomer 1)] ?
88

Continue with O=Cc1c(O)cccc1OC[C@@H]1COCCN1C(=O)c1cccnc1CO [Compound 12]
58

Repeat for the following molecule: O=Cc1c(O)cccc1OC[C@@H]1CCCCN1C(=O)c1cccnc1 [Reference Compound A, reference compound]
29

Please do the same for O=Cc1c(O)cccc1OC[C@@H]1COCCN1C(=O)c1ccccc1 [Reference Compound B, reference compound] as well.
29.8

Try O=Cc1c(O)cccc1OCC1CSCCN1C(=O)c1cccnc1CCO (single isomer, unassigned) [10 (Enantiomer 2)] next.
112

Next: O=Cc1c(O)cccc1OC[C@@H]1CCCCN1C(=O)c1cccnc1CO [Compound 11]
55

Entry to check: O=Cc1c(O)cccc1OC[C@@H]1COCCN1C(=O)c1ccccc1CO [Compound 23]
62

Consider next the molecule O=Cc1c(O)cccc1OC[C@@H]1CCCCN1C(=O)c1cccnc1C(O)CO (some centres unmarked) [Compound 36] in the same way.
56

Also COCCc1ncccc1C(=O)N1CCOC[C@H]1COc1cccc(O)c1C=O [Compound 20] ?
65

---

- Subject of test: Hb (Homo sapiens, UniProt P68871+P69905)
- Construct: from tissue; host or cells: whole blood
- Experimental protocol: Whole blood assay: oxygen equilibrium curves (Hemox Analyzer), change in p50
- Assay type: cell-based
- Experimental context: whole blood incubated 1 h at 37° C., equimolar ratio of hemoglobin to compound
Measurement name: Delta-p50 (%)
Could you kindly put the unit after your number?

Recorded Delta-p50 (%), per entry:
Under Hb (Homo sapiens, UniProt P68871+P69905): Delta-p50 (%) value of CC(O)c1ncccc1C(=O)N1CCOC[C@H]1COc1cccc(O)c1C=O (single isomer, unassigned) [41 (Diastereomer 1)] ?
66.71%

Next compound up: `O=Cc1c(O)cccc1OC[C@@H]1COCCN1C(=O)c1cccnc1CO`
76.7%

Next up: `O=Cc1c(O)cccc1OC[C@@H]1COCCN1C(=O)c1cccnc1CCO`
79.8%

One more compound: O=Cc1c(O)cccc1OC[C@@H]1CSCCN1C(=O)c1ccccc1C(O)CO (single isomer, unassigned) [35 (Diastereomer 2)]
83.1%

Consider next the compound `O=Cc1c(O)cccc1OC[C@@H]1CCCCN1C(=O)c1cccnc1CCN1CCCC1` in the same way.
75.5%

Try the compound `COCCc1nccnc1C(=O)N1CCOC[C@H]1COc1cccc(O)c1C=O`
66.58%

Also check `COCCc1ccccc1C(=O)N1CCCC[C@H]1COc1cccc(O)c1C=O`
74.56%

Others:
Form entry - test system: Hb (Homo sapiens, UniProt P68871+P69905); read-out: Delta-p50 (%); compound: `COCCc1ncccc1C(=O)N1CCCC[C@H]1COc1cccc(O)c1C=O`
84.4%

---

- Subject of test: Hb (Homo sapiens, UniProt P68871+P69905)
- Construct: from tissue; host or cells: whole blood
- Experimental protocol: Whole blood assay: oxygen equilibrium curves (Hemox Analyzer), change in p50
- Format: cell-based
- Experimental context: whole blood incubated 1 h at 37° C., equimolar ratio of hemoglobin to compound
Labelling field: enter true if recorded Delta-p50 (%) is less than 70%. Enter false if it equals or exceeds that cut-off.

The examples below pair each entry with its known result.
Is Delta-p50 (%) strictly under 70% for the entry O=Cc1c(O)cccc1OCC1CSCCN1C(=O)c1ccccc1CO (stereo not shown) [Compound 40] ?
false

Try O=Cc1c(O)cccc1OCC1CSCCN1C(=O)c1cccnc1CO (single isomer, unassigned) [Compound 13 (Enantiomer 1)] next.
false

Same question, O=Cc1c(O)cccc1OC[C@@H]1CCCCN1C(=O)c1ccccc1C(O)CO (single isomer, unassigned) [34 (Diastereomer 1)] this time
false

Record: O=Cc1c(O)cccc1OCC1CSCCN1C(=O)c1cccnc1CCO (single isomer, unassigned) [10 (Enantiomer 2)]
false

Consider next the compound `O=Cc1c(O)cccc1OC[C@@H]1CCCCN1C(=O)c1cccnc1CCO` in the same way.
false

Also need O=Cc1c(O)cccc1OCC1CSCCN1C(=O)c1cccnc1CO (single isomer, unassigned) [13 (Enantiomer 2)] , thanks.
true

Okay, and `O=Cc1c(O)cccc1OC[C@@H]1CCCCN1C(=O)c1ncccc1CCO` ?
true

// next record `O=Cc1c(O)cccc1OC[C@@H]1CCCCN1C(=O)c1nccnc1CCO`
true

Further cases:
Consider the compound `O=Cc1c(O)cccc1OC[C@@H]1CCCN1C(=O)c1nccnc1CCO` . Is its Delta-p50 (%) strictly less than 70%?
true

Next record, please: `COCCc1ncccc1C(=O)N1CCOC[C@H]1COc1cccc(O)c1C=O`
false

Okay, and `COCCc1ncccc1C(=O)N1CCC[C@H]1COc1cccc(O)c1C=O` ?
true
